This collection of values is drawn from the supplement of paper PMC7125110.

Catalogue of variants with associated kcat
B1: glmS ribozyme (parent)
chain: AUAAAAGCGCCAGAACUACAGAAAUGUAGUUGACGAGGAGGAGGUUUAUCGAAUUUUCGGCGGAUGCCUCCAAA

Variants of: B1
Test: kcat; higher = faster cleavage; RNA array
Settings: with glucosamine-6-phosphate
This sample holds only a part of the variants without activity.

G43C C68A; 1.06e-05 s⁻¹
U54C U65C; 0.000618 s⁻¹
C11A U69C; 6.61e-05 s⁻¹

**Query** I would be grateful if you could share the reported kcat for U45G U56A .
**Result** 0.00335 s⁻¹

**Query** Sample A15U G32A — what was its kcat?
**Result** 0.00116 s⁻¹

**Query** What does the record list as kcat for G51A C68A ?
**Result** 2.97e-05 s⁻¹
